tested on: PC49; assay: qHTS profiling for inhibitors of Plasmodium falciparum proliferation (AID 504749); further: nearly all actives have a fitted effect of over 60% in size; settings: P. falciparum in erythrocytes, SYBR Green DNA, 72 h; series mostly up to 28.7 µM
Inconclusive results are not listed. Active and inactive are the calls of the source. The call rests on the fitted dose curve; in most records, active means well fitted inhibition curve with a large enough effect; inconclusive means small, poorly fitted or top-dose-only effect; inactive means flat fitted curve, though single readings scatter.
Give your call using only these classes: True for active, False for inactive

Exam item: Recorded call for CC(C)COCC(CN(Cc1ccccc1)c1ccccc1)N1CCCC1 (configuration not stated) ?
Marked response: False

Exam item: Could you check what this test reported for `O=C(O)CP(=O)(O)O` ?
Marked response: False

Exam item: Which outcome was assigned to `Nc1ncn([C@@H]2O[C@H](CO)[C@@H](O)[C@H]2O)c(=O)n1` in this test?
Marked response: False

Exam item: Test call, this molecule: `O=C1CC2(CCCC2)CC(=O)N1CCCCN1CCN(c2ncccn2)CC1`
Marked response: False

Exam item: What classification did `COCC(=O)O[C@]1(CCN(C)CCCc2nc3ccccc3[nH]2)CCc2cc(F)ccc2[C@@H]1C(C)C` end up with in this test?
Marked response: True

Exam item: Please state the recorded outcome for this molecule: `Cc1nc2c([nH]1)c(=O)n(C)c(=O)n2Cc1ccco1`
Marked response: False

Exam item: Check the results log: what was the call for `C[C@H](CS)C(=O)N1CCC[C@H]1C(=O)O` ?
Marked response: False

Exam item: Hi team, can someone confirm the assay call for `CCN(CC)CCCN(c1ccccc1)C1Cc2ccccc2C1` ?
Marked response: True

Exam item: // param item: `CCCCOCCOCCOCc1cc2c(cc1CCC)OCO2` ; yields the recorded call
Marked response: False

Exam item: I'd appreciate the recorded outcome for `NC(=O)c1ncn([C@@H]2O[C@H](CO)[C@@H](O)[C@H]2O)c1O` from this test.
Marked response: False

Exam item: So what was the verdict on `O=C(O)CCCCCCCC(=O)O` in this test?
Marked response: False

Exam item: Which outcome was entered for the molecule `CN(C)C(=O)Oc1cccc([N+](C)(C)C)c1` in this test?
Marked response: False

Where do these numbers come from? They come from PubChem BioAssay (NCATS).
